Measured melting point, listed per entry.
assay-endpoint: melting point

[[record]]
molecule = "CCOc1ccc(C)cc1NC(=O)Nc1ccc(N2CCN(C(=O)Nc3ccccc3C(F)(F)F)CC2)cc1 [Example 83]"
assay_endpoint = "melting point"
result = "219 to 220 °C"

[[record]]
molecule = "Cc1ccc(F)c(NC(=O)Nc2ccc(N3CCN(C(=O)OC(C)(C)C)CC3)cc2)c1 [Example 37]"
assay_endpoint = "melting point"
result = "211 to 214 °C"

[[record]]
molecule = "COc1ccc(C)cc1NC(=O)Nc1ccc(N2CCN(C(=O)Nc3ccc(C(=O)O)cc3C)CC2)cc1 [Example 180]"
assay_endpoint = "melting point"
result = "178 to 180 °C"

[[record]]
molecule = "CCOc1ccc(Cl)cc1NC(=O)Nc1ccc(N2CCN(C(=O)Nc3ccccc3C(F)(F)F)CC2)cc1 [Example 102]"
assay_endpoint = "melting point"
result = "219 to 221 °C"


###

Measured melting point, listed per entry.
assay-endpoint: melting point

[[record]]
molecule = "COc1ccc(C)cc1NC(=O)Nc1ccc(N2CCN(C(=O)Nc3ccc(OCCO)cc3F)CC2)cc1"
result = "214 to 215 °C"

[[record]]
molecule = "CCCCc1ccc(NC(=O)N2CCN(c3ccc(NC(=O)Nc4cc(C)ccc4OC)cc3)CC2)c(C)c1"
result = "172 to 173 °C"

[[record]]
molecule = "COc1ccc(C)cc1NC(=O)Nc1ccc(N2CCN(C(=O)Nc3c(F)cccc3C(F)(F)F)CC2)cc1"
result = "134 to 136 °C"

[[record]]
molecule = "COc1ccc(C)cc1NC(=O)Nc1ccc(N2CCN(C(=O)Nc3ccc(OCCO)cc3Cl)CC2)cc1"
result = "152 to 154 °C"

[[record]]
molecule = "COc1ccc(C)cc1NC(=O)Nc1ccc(N2CCN(C(=O)Cc3c(F)cccc3F)CC2)cc1"
result = "213 to 215 °C"

[[record]]
molecule = "COc1ccc(C)cc1NC(=O)Nc1ccc2c(c1)CCN(C(=O)Oc1ccc(CCO)cc1Cl)C2"
result = "95 to 98 °C"

[[record]]
molecule = "COc1ccc(C)cc1NC(=O)Nc1ccc(N2CCN(C(=O)Nc3ccccc3C#N)CC2)cc1"
result = "210 to 212 °C"

[[record]]
molecule = "COc1ccc(C)cc1NC(=O)Nc1ccc(N2CCN(C(=O)Nc3ccc(OCCO)cc3Cl)C(C)C2)cc1 (centres unmarked)"
result = "129 to 131 °C"


###

assay-endpoint: melting point

[[record]]
query_smiles = "COc1ccc(C)cc1NC(=O)Nc1ccc(N2CCN(C(=O)Oc3ccc(CC(=O)O)cc3Cl)CC2)cc1"
result = "199 to 200 °C"

[[record]]
query_smiles = "COc1cc(NC(=O)Nc2ccc(N3CCN(C(=O)Nc4ccc(OCCO)cc4Cl)CC3)cc2)cc(OC)c1"
result = "114 to 116 °C"

[[record]]
query_smiles = "COc1ccc(C)cc1NC(=O)Nc1ccc(N2CCN(C(=O)Oc3ccc(CCO)cc3Cl)CC2)cc1"
result = "189 to 190 °C"

[[record]]
query_smiles = "COc1ccc(C)cc1NC(=O)Nc1ccc(N2CCN(C(=O)Nc3c(Cl)cccc3Cl)CC2)nc1"
result = "222 to 224 °C"


###

Measured melting point, listed per entry.
assay-endpoint: melting point

[[record]]
query_smiles = "COc1ccc(F)cc1NC(=O)Nc1ccc(N2CCN(C(=O)Nc3c(C)cccc3Cl)CC2)cc1"
result = "240 to 241 °C"

[[record]]
query_smiles = "COc1ccc(C)cc1NC(=O)Nc1ccc(N2CCN(C(=O)OC(C)(C)C)CC2)nc1"
result = "185 to 186 °C"

[[record]]
query_smiles = "COc1cc(NC(=O)Nc2ccc(N3CCN(C(=O)Nc4cc(OCCO)ccc4Cl)CC3)cc2)cc(OC)c1"
result = "191 to 192 °C"

[[record]]
query_smiles = "COc1ccc(C)cc1NC(=O)Nc1ccc(N2CCN(C(=O)Nc3ccc(F)cc3C(F)(F)F)CC2)cc1"
result = "172 to 174 °C"

[[record]]
query_smiles = "CCOc1ccc(C)cc1NC(=O)Nc1ccc(N2CCN(C(=O)Nc3c(F)cccc3C(F)(F)F)CC2)cc1"
result = "144 to 146 °C"

[[record]]
query_smiles = "COc1ccccc1NC(=O)Nc1ccc(C2CCN(C(=O)Nc3ccc(OCCO)cc3Cl)CC2)cc1"
result = "166 to 168 °C"

[[record]]
query_smiles = "CCOc1ccccc1NC(=O)Nc1ccc(N2CCN(C(=O)Nc3c(C)cccc3OC)CC2)nc1"
result = "129 to 130 °C"

[[record]]
query_smiles = "CCOc1ccccc1NC(=O)Nc1ccc(N2CCN(C(=O)Nc3ccc(OC)cc3C)CC2)nc1"
result = "166 to 168 °C"

[[record]]
query_smiles = "CCOc1ccc(Cl)cc1NC(=O)Nc1ccc(N2CCN(C(=O)Nc3c(Cl)cccc3Cl)CC2)cc1"
result = "135 to 137 °C"

[[record]]
query_smiles = "COc1ccc(C)cc1NC(=O)Nc1ccc(N2CCC(C(=O)c3ccccc3)CC2)nc1"
result = "193 to 194 °C"

[[record]]
query_smiles = "CCOc1ccc(C)cc1NC(=O)Nc1ccc(N2CCN(C(=O)Nc3c(C)cccc3Cl)CC2)cc1"
result = "157 to 159 °C"

[[record]]
query_smiles = "CCOc1ccc(C)cc1NC(=O)Nc1ccc(N2CCN(C(=O)Nc3ncccc3C)CC2)cc1"
result = "206 to 208 °C"

